- Tested on: MDA-MB-435
- Method: Antiproliferative activity against wild type human MDA-MB-435 cells expressing FAP-alpha incubated for 48 hrs by MTT assay
- Type: functional, cell-based
- Experimental conditions: MDA-MB-435, 48 h
Form field: pIC50 (one value per entry).
Keep in mind that pIC50 stands for -log10 of concentration in molar terms.

C[C@]12CC[C@H](OC(=O)[C@H](Cc3c[nH]c4ccccc34)NC(=O)[C@@H]3CCCN3C(=O)CNC(=O)OCc3ccccc3)C[C@H]1CC[C@@H]1[C@@H]2[C@H](O)C(=O)[C@]2(C)[C@@H](c3ccc(=O)oc3)CC[C@]12O
7.97
C[C@]12CC[C@H](OC(=O)[C@@H](N)Cc3c[nH]c4ccccc34)C[C@H]1CC[C@@H]1[C@@H]2[C@H](O)C(=O)[C@]2(C)[C@@H](c3ccc(=O)oc3)CC[C@]12O
8.00

Proceeding to the next compound to report its pIC50.
Query: Which pIC50 is reported for this compound? `C[C@]12CC[C@H](O)C[C@H]1CC[C@@H]1[C@@H]2[C@H](O)C(=O)[C@]2(C)[C@@H](c3ccc(=O)oc3)CC[C@]12O`
Response: 7.65

---

- Tested on: MDA-MB-231
- Method: Antiproliferative activity against FAP-alpha deficient human MDA-MB-231 cells incubated for 48 hrs by MTT assay
- Type: functional, cell-based
- Experimental conditions: MDA-MB-231, 48 h
Endpoint label: IC50 (nM)
Express the result in nM but write the number alone.

C[C@]12CC[C@H](O)C[C@H]1CC[C@@H]1[C@@H]2[C@H](O)C(=O)[C@]2(C)[C@@H](c3ccc(=O)oc3)CC[C@]12O
15.7
C[C@]12CC[C@H](OC(=O)[C@@H](N)Cc3c[nH]c4ccccc34)C[C@H]1CC[C@@H]1[C@@H]2[C@H](O)C(=O)[C@]2(C)[C@@H](c3ccc(=O)oc3)CC[C@]12O
4.81

Query: Which IC50 is reported for this molecule? `C[C@]12CC[C@H](OC(=O)[C@H](Cc3c[nH]c4ccccc34)NC(=O)[C@@H]3CCCN3C(=O)CNC(=O)OCc3ccccc3)C[C@H]1CC[C@@H]1[C@@H]2[C@H](O)C(=O)[C@]2(C)[C@@H](c3ccc(=O)oc3)CC[C@]12O`
Response: 27
